These measurements were taken from paper PMC10021056.

# subject.of.test: postfusion Nipah virus fusion (F) glycoprotein, construct NiVF_postfusion (Nipah virus, Malaysian strain, stabilised)
observable: binding result

201805_NiV_P2_F7 (antibody, V domains shown) VH: QVQLQQSGAELVKPGASVKMSCKASGYTFTNYWIHWVKQRPGQGLEWIGEIDPSNGNSDHNQDFKVKATLTVDTFSSTAYMQLNSLTSEDSAVYYCARSRYYFDYWGQGTTLTVSA VL: QIVLPQSPAIMSASPGEKVTLTCSARSSVSSGYLYWYQQKPGSSPKLWIYSTSNLASGVPTRFSGSGSGTSYSLTISSMEAEDAASYFCHQWSSYPPTFGGGTKLEIK
binds
201805_NiV_PL3_G11 (antibody, V domains shown) VH: QVQLQQSGAELVKPGASVKLSCKASGYIFTNYDINWVRQRPEQGLEWIGWIFPGDVSTNYNEKFKGKATLTTDKSSSTAYMQLSRLTSEDSAVYFCARRSFQAMDYWGQGTSVTVSA VL: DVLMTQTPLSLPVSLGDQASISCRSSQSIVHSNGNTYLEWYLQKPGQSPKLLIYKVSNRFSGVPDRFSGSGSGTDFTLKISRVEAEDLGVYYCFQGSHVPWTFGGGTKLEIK
binds
